The measurements presented in this section are drawn from ChEMBL document CHEMBL2429834.

Would you mind telling me the reported solubility kinetic of each entry?
protocol: Kinetic solubility of the compound in potassium phosphate buffer at pH 6.8 by turbidometric analysis
Type: physicochemical
study-conditions: read-out: Kinetic_solubility

{"compound": "Cn1cccc1C(=O)NCc1ccc(C(=O)NO)cc1", "solubility kinetic": "> 200 µM"}
{"compound": "O=C(NO)c1ccc2c(c1)CCN(C(=O)C1CCCCCC1)C2", "solubility kinetic": "> 200 µM"}

Turning now to a further record.
Please fill in: solubility kinetic reported for O=C(NO)c1cc2c(s1)CN(C(=O)C1CCCCC1)CC2 = > 200 µM

* * *

protocol: Aqueous thermodynamic solubility of the compound in potassium phosphate monobasic buffer at pH 7.5 after 24 hrs by LC-MS analysis
Assay type: physicochemical
study-conditions: read-out: Therm_solubility
measured-quantity: solubility thermodynamic at 24 h
Give the figure together with its unit, number first.

Please fill in: solubility thermodynamic at 24 h reported for Cn1cccc1C(=O)N1CCc2cc(C(=O)NO)ccc2C1 = 2000 µM

* * *

subject-of-test: Protein deacetylase HDAC6 (Homo sapiens, UniProt Q9UBN7)
Sequence (Q9UBN7 whole entry): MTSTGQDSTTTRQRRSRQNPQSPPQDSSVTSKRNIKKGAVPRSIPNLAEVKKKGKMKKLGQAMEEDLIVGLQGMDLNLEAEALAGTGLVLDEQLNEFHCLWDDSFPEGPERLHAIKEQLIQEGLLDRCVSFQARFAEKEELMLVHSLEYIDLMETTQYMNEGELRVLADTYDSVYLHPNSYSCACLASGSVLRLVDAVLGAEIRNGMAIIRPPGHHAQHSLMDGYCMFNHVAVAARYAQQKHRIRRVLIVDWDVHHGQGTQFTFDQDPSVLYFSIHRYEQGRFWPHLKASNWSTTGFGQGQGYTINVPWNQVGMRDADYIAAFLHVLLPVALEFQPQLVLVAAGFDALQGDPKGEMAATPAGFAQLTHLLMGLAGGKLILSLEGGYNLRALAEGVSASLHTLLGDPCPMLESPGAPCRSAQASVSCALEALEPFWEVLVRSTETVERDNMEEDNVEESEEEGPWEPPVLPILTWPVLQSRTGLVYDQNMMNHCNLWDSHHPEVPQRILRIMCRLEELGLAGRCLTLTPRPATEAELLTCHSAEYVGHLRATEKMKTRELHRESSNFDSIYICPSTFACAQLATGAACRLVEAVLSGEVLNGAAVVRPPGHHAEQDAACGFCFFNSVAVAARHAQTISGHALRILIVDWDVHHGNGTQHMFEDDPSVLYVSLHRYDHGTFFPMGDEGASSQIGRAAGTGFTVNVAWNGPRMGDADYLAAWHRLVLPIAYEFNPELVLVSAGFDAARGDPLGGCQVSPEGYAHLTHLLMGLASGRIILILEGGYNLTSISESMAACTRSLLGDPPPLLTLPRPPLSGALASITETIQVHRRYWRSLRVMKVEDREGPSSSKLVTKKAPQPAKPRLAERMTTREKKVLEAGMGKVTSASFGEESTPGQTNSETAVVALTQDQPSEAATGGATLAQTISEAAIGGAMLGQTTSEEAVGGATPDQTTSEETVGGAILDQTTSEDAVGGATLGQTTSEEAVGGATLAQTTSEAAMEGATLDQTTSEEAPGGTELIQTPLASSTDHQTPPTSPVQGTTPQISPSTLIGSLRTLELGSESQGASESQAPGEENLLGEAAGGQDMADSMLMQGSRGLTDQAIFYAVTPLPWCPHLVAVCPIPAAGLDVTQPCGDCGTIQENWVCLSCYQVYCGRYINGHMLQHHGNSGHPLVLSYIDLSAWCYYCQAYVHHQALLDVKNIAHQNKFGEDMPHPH
protocol: Inhibition of HDAC6 in human HeLa cells using acetyl tubulin as substrate assessed as Ac-tubulin accumulation in cytosol after 6 hrs by immunofluorescence assay
Would you mind telling me the reported pIC50 of each entry?
Give bare numbers, as −log10 of the molar value.

{"compound": "Cn1cccc1C(=O)N1CCc2cc(C(=O)NO)ccc2C1", "pIC50": 6.68}

Each of the following entries comes with a recorded value; kindly state pIC50 for each.
1. CC(C)(C)C(=O)N1Cc2ccc(C(=O)NO)cc2C1
2. O=C(NO)c1ccc2c(c1)CCCN(C(=O)c1ccc(-c3ccccc3)cc1)C2
3. CC(C)(C)C(=O)N1CCc2ccc(C(=O)NO)cc2CC1

A)
6.25
5.51
6.24

Each of the following entries comes with a recorded value; kindly state pIC50 for each.
1. O=C(NO)c1ccc2c(c1)CCCN(C(=O)C1CCCCCC1)C2
2. Cn1cccc1C(=O)N1CCc2ccc(C(=O)NO)cc2CC1
3. O=C(NO)c1ccc2c(c1)CCN(C(=O)C1CCCCCC1)CC2
4. CC(C)(C)C(=O)N1CCc2cc(C(=O)NO)ccc2C1
5. O=C(NO)c1ccc2c(c1)CCN(S(=O)(=O)c1ccc(C(F)(F)F)cc1)C2
6. O=C(NO)c1cc2c(s1)CN(C(=O)C1CCCCC1)CC2

A)
1. 5.54
2. 5.82
3. 5.70
4. 6.37
5. 5.89
6. 7.30

Each of the following entries comes with a recorded value; kindly state pIC50 for each.
1. Cn1cccc1C(=O)N1CCc2sc(C(=O)NO)cc2C1
2. Cn1cccc1C(=O)N1Cc2ccc(C(=O)NO)cc2C1

A)
7.74
6.47

* * *

Would you mind telling me the reported pIC50 of each entry?
subject-of-test: Protein deacetylase HDAC6 (Homo sapiens, UniProt Q9UBN7)
protocol: Inhibition of N-terminal GST-tagged recombinant HDAC6 (unknown origin) assessed as deacetylation of Ac-Arg-Gly-Lys (Ac) after 1 hr by fluorescence plate reader analysis in presence of trypsin
Numbers only, as −log10 of the molar value.

{"compound": "CC(C)(C)C(=O)N1CCc2cc(C(=O)NO)sc2C1", "subject-of-test": "Protein deacetylase HDAC6 (Homo sapiens, UniProt Q9UBN7)", "test-value": 7.46}
{"compound": "Cn1cccc1C(=O)N1CCc2cc(C(=O)NO)ccc2C1", "subject-of-test": "Protein deacetylase HDAC6 (Homo sapiens, UniProt Q9UBN7)", "test-value": 7.44}
{"compound": "O=C(NO)c1cc2c(s1)CCN(C(=O)C1CCCCC1)C2", "subject-of-test": "Protein deacetylase HDAC6 (Homo sapiens, UniProt Q9UBN7)", "test-value": 7.44}
{"compound": "O=C(NO)c1ccc2c(c1)CCN(C(=O)C1CCCCCC1)C2", "subject-of-test": "Protein deacetylase HDAC6 (Homo sapiens, UniProt Q9UBN7)", "test-value": 7.27}
{"compound": "O=C(NO)c1ccc2c(c1)CCN(C(=O)C1CCCCCC1)CC2", "subject-of-test": "Protein deacetylase HDAC6 (Homo sapiens, UniProt Q9UBN7)", "test-value": 6.92}

Each of the following entries comes with a recorded value; kindly state pIC50 for each.
1. Cn1cccc1C(=O)NCc1ncc(C(=O)NO)s1
2. Cn1cccc1C(=O)NCc1ccc(C(=O)NO)cc1
3. O=C(NO)c1ccc2c(c1)CCCN(C(=O)C1CCCCCC1)C2
4. CC(C)(C)C(=O)N1Cc2ccc(C(=O)NO)cc2C1
5. CC(C)(C)C(=O)N1CCc2cc(C(=O)NO)ccc2C1
6. Cn1cccc1C(=O)N1CCc2cc(C(=O)NO)sc2C1
7. O=C(NO)c1ccc2c(c1)CCN(C(=O)c1ccc(-c3ccccc3)cc1)CC2

A)
1. 7.28
2. 7.72
3. 6.47
4. 7.05
5. 7.28
6. 7.55
7. 7.23

* * *

protocol: Selectivity ratio of IC50 for HDAC1/2 in human HeLa cell nuclear extract to IC50 for N-terminal GST-tagged recombinant HDAC6 (unknown origin)
Format: cell-based
measured-quantity: Ratio IC50
Numbers only.

Solved cases (3 shown):
{"compound": "Cn1cccc1C(=O)N1CCc2cc(C(=O)NO)ccc2C1", "Ratio IC50": 500}
{"compound": "Cn1cccc1C(=O)NCc1ccc(C(=O)NO)s1", "Ratio IC50": 202}
{"compound": "O=C(NO)c1ccc2c(c1)CCN(S(=O)(=O)c1ccc(C(F)(F)F)cc1)C2", "Ratio IC50": 610}

Turning now to a further record.
Please fill in: Ratio IC50 reported for CC(C)(C)C(=O)NCc1ccc(C(=O)NO)cc1 = 200

* * *

protocol: Selectivity ratio of IC50 for HDAC1/2 in human HeLa cell nuclear extract to IC50 for N-terminal GST-tagged recombinant HDAC6 (unknown origin)
Format: cell-based
measured-quantity: Ratio IC50

{"compound": "CC(C)(C)C(=O)N1CCCc2cc(C(=O)NO)ccc2C1", "Ratio IC50": "> 200"}

Each of the following entries comes with a recorded value; kindly state Ratio IC50 for each.
1. Cn1cccc1C(=O)N1CCCc2cc(C(=O)NO)ccc2C1
2. O=C(NO)c1ccc2c(c1)CCCN(C(=O)C1CCCCCC1)C2

A)
> 380
> 200
